experiment: Pharmacokinetic evaluation in rats after intragastric infusion; format: in vivo; conditions: rat, po, male SD rats, 2 mg/kg single dose, plasma
assay.metric: half-life (h)
The figure you give is taken to be in h; do not add the unit.

Data request: For the compound shown here, `CC1(C)CCc2c(Oc3c(Cl)cc(-n4nc(C#N)c(=O)[nH]c4=O)cc3Cl)n[nH]c(=O)c21` , give the reported half-life.
Data returned: 5.14
